System: A498 renal
protocol.description: NCI tumour cell line growth inhibition, 48 h
parameter.measured: log10 TGI (log10 of the value in µM)
# values: log10(TGI), units µM

[[record]]
compound = "O=C(c1cccs1)c1c(C(F)(F)F)n([O-])c2ccc(C(F)(F)F)cc2[n+]1=O"
parameter_measured = "log10 TGI"
experimental_result = 0.48

[[record]]
compound = "CC(=O)O[C@H]1C(=O)[C@@]2(C)C([C@H](OC(=O)c3ccccc3)[C@]3(O)C[C@H](OC(=O)[C@H](O)[C@H](NC(=O)c4ccccc4)c4ccc(Cl)cc4)C(C)=C1C3(C)C)C1(OC(C)=O)CO[C@@H]1C[C@@H]2O (stereo partly drawn)"
parameter_measured = "log10 TGI"
experimental_result = 1.48

[[record]]
compound = "COc1ccc(-c2cc(-c3ccc(Nc4nc(Nc5ccc(Cl)cc5)nc(Nc5ccc(Cl)cc5)n4)cc3)nc(N)c2C#N)cc1"
parameter_measured = "log10 TGI"
experimental_result = 0.77


Task item: Please list log10 TGI recorded for the compound O=S(=O)(c1cc(Cl)ccc1Cl)N1CCN(c2ccc(Cl)c(Cl)c2)CC1
Reply: 1.75

Task item: # return recorded log10 TGI for input Cc1cc(C)c(S(=O)(=O)N[C@@H](/C=C(\Br)CO)C(C)C)c(C)c1
Reply: 1.83
